molecular target: HCV polymerase (NS5B) type 1b (Hepatitis C virus genotype 1b, UniProt P26663); construct: a region encoding NS5B (J Virol 1991 March, 65(3), 1105-13, 544 amino acids after deletion of 47 amino acids on the C-terminal); 6xHis (C); made in house; host or cells: Escherichia coli; experiment: Assay of enzyme (HCV polymerase) inhibitory activity, type 1b enzyme; type: biochemical, HCV BK strain (type 1b); details: HCV polymerase inhibitory activity (IC50), 1b, type 1b enzyme 0.5 μg/ml, 25° C., 60 min
pIC50: −log10 of the molar value. Counter-ions that a name gives are not always drawn.
Attribute: pIC50

These solved cases illustrate the format of a correct answer.
>>> test_result("CCC(F)(F)c1ccc(CNC(=O)[C@H]2CN(C(=O)Nc3nc(C(C)(C)O)cs3)CCN2S(=O)(=O)c2ccc(OC(F)(F)F)cc2)cc1")
"6.00 to 7.00"
>>> test_result("CCCc1ccc(CNC(=O)[C@H]2CN(c3cnc(C(=O)O)cn3)CCN2S(=O)(=O)c2ccc(OC(F)(F)F)cc2)cc1")
"> 7.00"

# input for lookup
Record request: pIC50 value, item CC(=O)N1CCN(S(=O)(=O)c2ccc(OC(F)(F)F)cc2)[C@@H](C(=O)NCC2CCNCC2)C1 [Example 654, hydrochloride]
< 6.00

---

biological target: HCV polymerase (NS5B) type 1a (Hepatitis C virus genotype 1a); construct: made in house; host or cells: Escherichia coli (by the 'similar method' of the 1b enzyme); assay: Assay of enzyme (HCV polymerase) inhibitory activity, type 1a enzyme; type: biochemical, HCV type 1a (cloned from the blood of patients); conditions: HCV polymerase inhibitory activity (IC50), 1a, type 1a enzyme 1.5 μg/ml, 25° C., 60 min
pIC50: −log10 of the molar value.
readout_kind: pIC50

// below: answered compounds
>>> test_result("CC(=O)N1CCN(S(=O)(=O)c2cccc(C(F)(F)F)c2)[C@@H](C(=O)NCc2ccc(C(C)C)cc2)C1")
"6.00 to 7.00"
>>> test_result("Cc1nc(N2CCN(S(=O)(=O)c3ccc(C(F)(F)F)cc3)[C@@H](C(=O)NCc3ccc(N(C)C)cc3)C2)sc1C(=O)O")
"> 7.00"
>>> test_result("CCCc1ccc(CNC(=O)[C@H]2CN(c3cnc(C(=O)O)cn3)CCN2S(=O)(=O)c2ccc(CCC)s2)cc1")
"> 7.00"
>>> test_result("CCNC(=O)N1CCN(S(=O)(=O)c2ccc(C(F)(F)F)cc2)[C@@H](C(=O)NCc2ccc(C(C)C)cc2)C1")
"6.00 to 7.00"
>>> test_result("COC(=O)CCc1ccc(S(=O)(=O)N2CCN(C(C)=O)CC2C(=O)NCc2ccc(C(F)(F)F)cc2)cc1 (stereo not shown)")
"< 6.00"

What does the data say about its pIC50? Entry: CCC(F)(F)c1ccc(CNC(=O)[C@H]2CN(C(=O)Nc3ccnc(C(=O)NC4CC4)c3)CCN2S(=O)(=O)c2ccc(OC(F)(F)F)cc2)cc1
> 7.00

Looking for the measured pIC50 of CCC(F)(F)c1ccc(CNC(=O)[C@H]2CN(C(=O)Nc3ccnc(C(=O)N4CCCC4)c3)CCN2S(=O)(=O)c2ccc(OC(F)(F)F)cc2)cc1 , can you help?
> 7.00

I am curious: what pIC50 value has been reported for CC(=O)N1CCN(S(=O)(=O)c2ccc(C(C)C)cc2)[C@@H](C(=O)NCc2ccc(C(C)C)cc2F)C1 ?
6.00 to 7.00

Suppose we examine the compound CC(=O)N1CCN(S(=O)(=O)c2ccc(C(C)C)cc2)[C@@H](C(=O)NCc2ccc(C(C)C)cc2Cl)C1 ; what pIC50 value has been reported?
6.00 to 7.00

---

Biological target: HCV polymerase (NS5B) type 1b (Hepatitis C virus genotype 1b, UniProt P26663)
Construct: a region encoding NS5B (J Virol 1991 March, 65(3), 1105-13, 544 amino acids after deletion of 47 amino acids on the C-terminal); 6xHis (C); made in house; host or cells: Escherichia coli
Assay: Assay of enzyme (HCV polymerase) inhibitory activity, type 1b enzyme
Format: biochemical, HCV BK strain (type 1b)
Conditions: HCV polymerase inhibitory activity (IC50), 1b, type 1b enzyme 0.5 μg/ml, 25° C., 60 min
Description: The evaluation of the HCV polymerase inhibitory activity of the compound of the present invention is explained in the following. This polymerase is an enzyme coded for by the non-structural protein region called NS5B on the genome RNA of HCV. i) Preparation of Enzyme (HCV Polymerase) […] The HCV polymerase inhibitory activity (IC50) of the compound of the present invention was calculated from the values of radioactivity of the enzyme reaction with and without the test substance. […]
pIC50: −log10 of the molar value.
readout_kind: pIC50

Below, 5 compounds whose answers are already recorded.
>>> test_result("CC(=O)N1CCN(S(=O)(=O)c2cccc(-c3ccccc3)c2)C(C(=O)NCc2ccc(C(F)(F)F)cc2)C1 (stereo not shown)")
"< 6.00"
>>> test_result("Cc1nc(N2CCN(S(=O)(=O)c3ccc(OC(F)(F)F)cc3)[C@@H](C(=O)NCc3ccc(C(C)C)cc3)C2)sc1C(=O)N[C@H](C)C(=O)O")
"> 7.00"
>>> test_result("CC(=O)N1CCN(S(=O)(=O)c2ccccc2Cl)C(C(=O)NCc2ccc(C(F)(F)F)cc2)C1 (stereo not shown)")
"< 6.00"
>>> test_result("CC(=O)N1CCN(S(=O)(=O)c2ccc(C(C)C)cc2)[C@@H](C(=O)NCc2ccc(C(C)C)cc2)C1")
"> 7.00"
>>> test_result("CCCc1ccc(CNC(=O)[C@H]2CN(c3cnc4[nH]c(=O)[nH]c4n3)CCN2S(=O)(=O)c2ccc(OC(F)(F)F)cc2)cc1")
"> 7.00"

Data request, read-out pIC50, for CC(C)c1ccc(CNC(=O)[C@H]2CN(c3nc(CCC(=O)O)cs3)CCN2S(=O)(=O)c2ccc(OC(F)(F)F)cc2)cc1
6.00 to 7.00

Using the record for CC(=O)N1CCN(S(=O)(=O)c2ccc(Br)cc2)C(C(=O)NCc2ccc(C(F)(F)F)cc2)C1 (stereo not shown) , report its pIC50.
< 6.00

---

biological target: HCV polymerase (NS5B) type 1b (Hepatitis C virus genotype 1b, UniProt P26663); construct: a region encoding NS5B (J Virol 1991 March, 65(3), 1105-13, 544 amino acids after deletion of 47 amino acids on the C-terminal); 6xHis (C); made in house; host or cells: Escherichia coli; experiment: Assay of enzyme (HCV polymerase) inhibitory activity, type 1b enzyme; assay type: biochemical, HCV BK strain (type 1b); conditions: HCV polymerase inhibitory activity (IC50), 1b, type 1b enzyme 0.5 μg/ml, 25° C., 60 min
Each entry below lists one item and its recorded IC50 value.

>>> test_result("CCC(F)(F)c1ccc(CNC(=O)[C@H]2CN(C(=O)Nn3cnnc3)CCN2S(=O)(=O)c2ccc(OC(F)(F)F)cc2)cc1 [Example 539]")
"100 to 1000 nM"

Look up IC50: COC(=O)CCCCC(=O)N1CCN(S(=O)(=O)c2ccc(C(F)(F)F)cc2)[C@@H](C(=O)NCc2ccc(C(C)C)cc2)C1 [Example 212]
< 100 nM

Please report the recorded IC50 for CC(C)c1ccc(CNC(=O)[C@H]2CN(c3nc(N)n[nH]3)CCN2S(=O)(=O)c2ccc(C(F)(F)F)cc2)cc1 [Example 368] .
100 to 1000 nM

Please give the measured IC50 for this molecule: CC(C)(C)c1ccc(CNC(=O)[C@H]2CN(c3nc4c(s3)CN(S(C)(=O)=O)CC4)CCN2S(=O)(=O)c2ccc(OC(F)(F)F)cc2)cc1 [Example 600]
< 100 nM

Query (molecule): CC(=O)N1CCN(S(=O)(=O)c2ccc(C(C)C)cc2)C(C(=O)NCc2ccc(NC(=O)C(C)(C)C)cc2)C1 (stereo not drawn) [Example 98] ; field requested: IC50
> 1000 nM

Dear colleague, I am looking for the recorded IC50 of the following molecule: CC(C)c1ccc(CNC(=O)[C@H]2CN(c3cnn(CC(=O)O)c3)CCN2S(=O)(=O)c2ccc(OC(F)(F)F)cc2)cc1 [Example 493]
100 to 1000 nM

---

target: HCV polymerase (NS5B) type 1b (Hepatitis C virus genotype 1b); construct: a region encoding NS5B (J Virol 1991 March, 65(3), 1105-13, 544 amino acids after deletion of 47 amino acids on the C-terminal); 6xHis (C); made in house; host or cells: Escherichia coli; assay: Assay of enzyme (HCV polymerase) inhibitory activity, type 1b enzyme; assay type: biochemical, HCV BK strain (type 1b); details: HCV polymerase inhibitory activity IC50, 1b, type 1b enzyme
pIC50: −log10 of the molar value.
readout_kind: pIC50

The examples below pair each entry with its known result.
>>> test_result("CSc1ccc(CNC(=O)[C@H]2CN(c3cnc4cncnc4n3)CCN2S(=O)(=O)c2ccc(OC(F)(F)F)cc2)cc1")
"> 7.00"
>>> test_result("CCC(F)(F)c1ccc(CNC(=O)[C@H]2CN(c3cnc4cccc(Cl)c4n3)CCN2S(=O)(=O)c2ccc(OC(F)(F)F)cc2)cc1")
"> 7.00"

// next item, pIC50 requested
Endpoint output: pIC50 of O=C(NCc1c(Cl)cc(Cl)cc1Cl)[C@H]1CN(c2cnc3cncnc3n2)CCN1S(=O)(=O)c1ccc(OC(F)(F)F)cc1 . Value?
> 7.00

These measurements were taken from patent US8017612B2.
